Some molecules, each annotated with its measured IC50.
experimental-system: hM5 (Homo sapiens, UniProt P08912)
Construct: expressed in transfected cells
method-summary: Calcium mobilization concentration-response (IC50 vs EC80 acetylcholine), CHO hM5
Format: cell-based
reported-conditions: CELL LINE hM5; calcium mobilization, EC80 acetylcholine addition; read-out: IC50
measured-endpoint: IC50 (µM)

chemical_string=Cc1ncc(S(=O)(=O)N2CCC(c3cn4ncnc4cc3Cl)CC2)n1C unit_abbrev=µM relation== quantitative_result=0.022
chemical_string=Cc1cc2nccn2nc1C1CCN(S(=O)(=O)c2cnc(C)n2C)CC1 unit_abbrev=µM relation== quantitative_result=0.123
chemical_string=Cc1cc2ncnn2nc1C1CCN(S(=O)(=O)c2ccc3c(c2)CCO3)CC1 unit_abbrev=µM relation== quantitative_result=5.9
chemical_string=Cc1cc2ncnn2cc1C1=CCN(S(=O)(=O)c2ccc3c(c2)C(C)(C)CO3)CC1 unit_abbrev=µM relation=> quantitative_result=10
chemical_string=Cc1c(C2CCN(S(=O)(=O)c3cnn(C)c3C)CC2)cn2ncnc2c1F unit_abbrev=µM relation== quantitative_result=0.021

* * *

Some compounds, each annotated with its measured IC50.
experimental-system: hM5 (Homo sapiens)
Construct: expressed in transfected cells
method-summary: Calcium mobilization concentration-response (IC50 vs EC80 acetylcholine), CHO hM5
Assay type: cell-based
reported-conditions: CELL LINE hM5; calcium mobilization, EC80 acetylcholine addition; read-out: IC50
measured-endpoint: IC50 (µM)

compound="Cc1cc2ncnn2cc1C1CCN(S(=O)(=O)c2cnc3n2CCCC3)CC1 [Compound 322]" measured_endpoint=IC50 unit_abbrev=µM relation== quantitative_result=0.0098
compound="O=S(=O)(c1ccc2c(c1)CCO2)N1CC=C(c2cc3c(cc2Cl)OCO3)CC1 [Compound 352]" measured_endpoint=IC50 unit_abbrev=µM relation=> quantitative_result=10
compound="O=S(=O)(c1ccc2c(c1)CCO2)N1CCC(c2nc3cccnc3s2)CC1 [Compound 12]" measured_endpoint=IC50 unit_abbrev=µM relation=> quantitative_result=10
compound="COc1cc2ncnn2cc1C1CCN(S(=O)(=O)c2cnn(C)c2C)CC1 [Compound 201]" measured_endpoint=IC50 unit_abbrev=µM relation== quantitative_result=0.765
compound="Cc1cc2ncnn2nc1C1CCN(S(=O)(=O)c2c(C)n[nH]c2C)CC1 [Compound 180]" measured_endpoint=IC50 unit_abbrev=µM relation=> quantitative_result=10
compound="Cc1cc2ncnn2cc1C1(O)CCN(S(=O)(=O)c2cnc(C)n2C)CC1 [Compound 309]" measured_endpoint=IC50 unit_abbrev=µM relation=> quantitative_result=10
compound="Cc1c(C2CCN(S(=O)(=O)c3cnn(C)c3C(F)(F)F)CC2)cn2ncnc2c1F [Compound 347]" measured_endpoint=IC50 unit_abbrev=µM relation== quantitative_result=0.36
compound="Cc1cc2ncnn2cc1C1CCN(S(=O)(=O)c2c3ccccc3nn2C)CC1 [Compound 150]" measured_endpoint=IC50 unit_abbrev=µM relation== quantitative_result=0.325

* * *

experimental-system: hM5 (Homo sapiens, UniProt P08912)
Construct: expressed in transfected cells
Sequence (P08912 1-532): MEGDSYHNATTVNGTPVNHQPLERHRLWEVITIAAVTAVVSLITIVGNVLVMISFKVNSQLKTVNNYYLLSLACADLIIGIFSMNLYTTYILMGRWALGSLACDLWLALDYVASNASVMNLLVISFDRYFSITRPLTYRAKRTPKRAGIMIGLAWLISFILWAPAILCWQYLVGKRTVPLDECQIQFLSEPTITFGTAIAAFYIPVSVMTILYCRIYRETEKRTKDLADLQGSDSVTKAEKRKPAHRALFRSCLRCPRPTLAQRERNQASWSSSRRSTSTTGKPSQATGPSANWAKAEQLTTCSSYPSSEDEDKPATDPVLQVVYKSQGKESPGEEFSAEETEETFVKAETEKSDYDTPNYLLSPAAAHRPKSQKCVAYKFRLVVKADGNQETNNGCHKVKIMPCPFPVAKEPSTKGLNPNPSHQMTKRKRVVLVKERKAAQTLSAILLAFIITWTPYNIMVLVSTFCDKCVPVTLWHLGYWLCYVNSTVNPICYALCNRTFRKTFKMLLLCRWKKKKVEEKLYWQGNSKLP
method-summary: Calcium mobilization concentration-response (IC50 vs EC80 acetylcholine), CHO hM5
Format: cell-based
reported-conditions: CELL LINE hM5; vs EC80 acetylcholine; read-out: IC50
Some molecules, each annotated with its measured IC50.
measured-endpoint: IC50 (nM)

chemical_string=Cc1ncc(S(=O)(=O)N2CCC(c3cc4cccnc4cc3C)CC2)s1 quantitative_result=2360
chemical_string=[2H]C([2H])([2H])Oc1c(S(=O)(=O)N2CCC(c3cn4ncnc4cc3Cl)CC2)cnn1C quantitative_result=22
chemical_string=CCc1cc2ncnn2cc1C1CCN(S(=O)(=O)c2cnn(C)c2C#N)CC1 quantitative_result=148
chemical_string=O=S(=O)(c1cnc2sccn12)N1CCC(c2cn3ncnc3cc2C(F)F)CC1 quantitative_result=34
